Target: rat pituitary cells (Rattus norvegicus)
Settings: read-out: PIT Cell EC50; Table V, formula II compounds; GH release, 15 min incubation
EXPERIMENTAL READOUT: EC50 (nM)
Respond numerically; units are nM and should not be typed.

Exercise: So what's the measured EC50 for this one? CN(C(=O)[C@@H](Cc1ccc2ccccc2c1)NC(=O)C1CCNCC1)[C@@H](CN)Cc1ccc2ccccc2c1
Key: 7

Exercise: Entry under review: O=C(N[C@H](Cc1ccc2ccccc2c1)C(=O)NCc1ccc2ccccc2c1)C1CCNCC1 . Reported EC50?
Key: 9

Exercise: Consider the molecule shown here: CN(CCc1ccc2ccccc2c1)C(=O)[C@@H](Cc1ccc2ccccc2c1)NC(=O)C1CCNCC1 What is its recorded EC50?
Key: 12

Exercise: Would you mind telling me what EC50 value was observed for O=C(N[C@H](Cc1ccc2ccccc2c1)C(=O)NCCc1ccc2ccccc2c1)C1CCNCC1 ?
Key: 11

====

Molecular target: rat pituitary cells (Rattus norvegicus, UniProt O08725)
Sequence (O08725 whole entry): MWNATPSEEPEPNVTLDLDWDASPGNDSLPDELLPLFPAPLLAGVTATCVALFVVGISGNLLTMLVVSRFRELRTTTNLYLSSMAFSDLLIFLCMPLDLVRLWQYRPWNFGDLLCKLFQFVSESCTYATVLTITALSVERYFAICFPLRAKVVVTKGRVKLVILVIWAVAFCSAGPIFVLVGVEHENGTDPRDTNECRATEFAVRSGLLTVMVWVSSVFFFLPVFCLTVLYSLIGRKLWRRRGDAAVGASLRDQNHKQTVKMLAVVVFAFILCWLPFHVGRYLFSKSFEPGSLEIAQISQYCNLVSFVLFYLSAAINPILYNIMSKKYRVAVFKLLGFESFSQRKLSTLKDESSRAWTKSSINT
Conditions: read-out: PIT Cell EC50; Table III, formula IV compounds; GH release, 15 min incubation
Non-standard residues stand in square brackets, D forms with d. Residues, ends and D or L forms follow the SMILES beside them. dNMe2Nal = CN[C@H](Cc1ccc2ccccc2c1)C(=O)O; d2Nal = N[C@H](Cc1ccc2ccccc2c1)C(=O)O; Inp = O=C(O)C1CCNCC1; Ava = NCCCCC(=O)O
EXPERIMENTAL READOUT: pEC50
Note on units: pEC50 is unitless, being -log10 of a concentration expressed in mol/L.

Please review the following examples before continuing.
[
  {
    "COMPOUND": "NCCCC[C@H](NC(=O)[C@H](Cc1ccccc1)NC(=O)[C@@H](Cc1ccc2ccccc2c1)NC(=O)[C@@H](Cc1ccc2ccccc2c1)NC(=O)C1CCNCC1)C(=O)N[C@@H](Cc1ccc(O)cc1)C(N)=O [(inip) b b F K Y amide] (H-[Inp][d2Nal][d2Nal]FKY-NH2)",
    "pEC50": 9.37
  },
  {
    "COMPOUND": "CN(C(=O)[C@@H](Cc1ccc2ccccc2c1)NC(=O)CCCCN)[C@H](Cc1ccc2ccccc2c1)C(=O)N[C@@H](Cc1ccccc1)C(=O)N[C@@H](CCCCN)C(N)=O [(Ava) b nmb F K amide] (H-[Ava][d2Nal][dNMe2Nal]FK-NH2)",
    "pEC50": 8.42
  },
  {
    "COMPOUND": "NCCCC[C@H](NC(=O)[C@H](Cc1ccccc1)NC(=O)[C@@H](Cc1ccc2ccccc2c1)NC(=O)[C@@H](Cc1ccc2ccccc2c1)NC(=O)[C@@H](N)Cc1c[nH]cn1)C(N)=O [H b b F K amide] (H-H[d2Nal][d2Nal]FK-NH2)",
    "pEC50": 8.62
  }
]

Exercise: Dear colleague, I am looking for the recorded pEC50 of the following compound: CN(C)C(=O)[C@H](Cc1ccccc1)NC(=O)[C@@H](Cc1ccc2ccccc2c1)NC(=O)[C@@H](Cc1ccc2ccccc2c1)N(C)C(=O)C1CCNCC1 [(inip) nmb b F dam] (H-[Inp][dNMe2Nal][d2Nal]F-NMe2)
Key: 8.22

====

Molecular target: rat pituitary cells (Rattus norvegicus)
Conditions: read-out: mean EC50; mean ± SE of independent EC50s
EXPERIMENTAL READOUT: pEC50
Note: pEC50 values are expressed as the negative base-10 logarithm of concentration in M.

[
  {
    "COMPOUND": "NCCCC[C@H](NC(=O)[C@H](Cc1ccccc1)NC(=O)[C@@H](Cc1ccc2ccccc2c1)NC(=O)[C@@H](Cc1ccc2ccccc2c1)NC(=O)C1CCNCC1)C(N)=O [(inip) b b F K amide, (inip)-DβNal-DβNal-Phe-Lys-amide]",
    "TARGET UNDER TEST": "rat pituitary cells (Rattus norvegicus)",
    "REPORTED": 9.74
  }
]

Exercise: Form field: pEC50 recorded for NCCCNC(=O)[C@H](Cc1ccc2ccccc2c1)NC(=O)[C@H](Cc1ccc2ccccc2c1)NC(=O)[C@@H](Cc1ccc2ccccc2c1)NC(=O)CCCN [(Ab) b B B ram] with rat pituitary cells (Rattus norvegicus) (enter value)
Key: 8.70

Exercise: Item O=C(N[C@H](Cc1ccc2ccccc2c1)C(=O)N[C@@H](CO)Cc1c[nH]c2ccccc12)C1CCNCC1 [(inip) b wol, (inip)-DβNal-(D-Tryptophanol)] with rat pituitary cells (Rattus norvegicus) - pEC50?
Key: 7.97
